Every entry's value here was drawn from the supplement of paper PMC3334620.

target: Hap1 (UniProt P0CE41); assay: PBM E-score (8-mer binding enrichment) (E-score (-0.5 to 0.5)); higher = stronger / more preferred TF binding; details: protein concentration: 200 nM; construct: GST-DNA-binding domain
Sequence (P0CE41 whole entry, the tested form may be a part): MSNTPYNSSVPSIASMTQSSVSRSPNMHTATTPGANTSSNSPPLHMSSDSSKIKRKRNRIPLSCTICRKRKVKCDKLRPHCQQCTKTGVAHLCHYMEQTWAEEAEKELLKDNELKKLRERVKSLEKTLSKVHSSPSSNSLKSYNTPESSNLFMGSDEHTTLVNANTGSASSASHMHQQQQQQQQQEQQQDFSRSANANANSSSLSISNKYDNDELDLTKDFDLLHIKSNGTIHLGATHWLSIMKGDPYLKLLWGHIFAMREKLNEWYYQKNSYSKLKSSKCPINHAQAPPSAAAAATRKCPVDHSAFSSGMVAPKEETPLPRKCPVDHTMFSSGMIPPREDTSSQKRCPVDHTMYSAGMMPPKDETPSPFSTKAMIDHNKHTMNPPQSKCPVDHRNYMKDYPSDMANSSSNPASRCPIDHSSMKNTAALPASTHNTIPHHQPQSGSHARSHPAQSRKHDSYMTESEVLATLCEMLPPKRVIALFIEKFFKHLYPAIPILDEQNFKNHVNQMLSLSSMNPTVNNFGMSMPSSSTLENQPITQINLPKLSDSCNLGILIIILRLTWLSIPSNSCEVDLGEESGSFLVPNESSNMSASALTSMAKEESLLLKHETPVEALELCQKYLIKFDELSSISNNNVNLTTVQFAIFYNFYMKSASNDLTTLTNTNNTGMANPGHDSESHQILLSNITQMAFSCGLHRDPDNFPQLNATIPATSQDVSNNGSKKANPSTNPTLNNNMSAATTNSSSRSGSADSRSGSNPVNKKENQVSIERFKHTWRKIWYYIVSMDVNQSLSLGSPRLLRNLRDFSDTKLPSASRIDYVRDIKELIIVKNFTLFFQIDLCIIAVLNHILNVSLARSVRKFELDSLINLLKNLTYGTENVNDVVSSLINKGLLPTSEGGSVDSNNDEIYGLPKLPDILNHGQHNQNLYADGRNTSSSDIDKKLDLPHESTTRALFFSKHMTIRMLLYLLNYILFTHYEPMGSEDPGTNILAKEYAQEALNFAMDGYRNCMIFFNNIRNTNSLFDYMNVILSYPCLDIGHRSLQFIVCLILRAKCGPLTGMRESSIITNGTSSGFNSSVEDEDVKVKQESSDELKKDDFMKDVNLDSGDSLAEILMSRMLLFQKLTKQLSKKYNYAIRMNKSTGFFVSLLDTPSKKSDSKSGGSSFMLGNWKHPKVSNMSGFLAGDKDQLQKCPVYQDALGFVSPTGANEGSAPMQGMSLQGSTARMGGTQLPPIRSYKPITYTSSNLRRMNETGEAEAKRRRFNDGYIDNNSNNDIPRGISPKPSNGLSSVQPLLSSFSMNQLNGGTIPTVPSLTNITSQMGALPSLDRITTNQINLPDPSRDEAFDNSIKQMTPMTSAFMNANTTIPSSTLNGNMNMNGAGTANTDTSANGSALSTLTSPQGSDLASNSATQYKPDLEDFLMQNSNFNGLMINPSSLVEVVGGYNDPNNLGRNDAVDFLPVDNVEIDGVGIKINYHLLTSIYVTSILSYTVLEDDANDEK
Whole data set: some 33,000 sequences, median “E-score (-0.5 to 0.5)” near -0.053, cut for the highest 2% near 0.37. Shown is part of a subset that was picked to be rich in the highest values.
Criterion: PBM E-score meeting or surpassing 0.3. Met: label 1. Not met: label 0.

{"columns": ["sequence", "discrete.label"],
 "data": [
  ["CGGGCGTA", "label 1"],
  ["AAAACAAA", "label 0"],
  ["AGCGTACT", "label 0"],
  ["TCCGTTAA", "label 1"],
  ["GGGGCGAA", "label 0"],
  ["CGTCCGGA", "label 1"],
  ["CGGAGCAC", "label 0"],
  ["CCGATGCA", "label 0"],
  ["CAGGAAGC", "label 0"],
  ["CGTCCGTC", "label 0"],
  ["CAGACCAG", "label 0"],
  ["CATTCAGA", "label 0"],
  ["AAGCCGAT", "label 1"],
  ["CGTCCGTA", "label 1"],
  ["GACAGAGC", "label 0"],
  ["CACTCGGC", "label 1"],
  ["ACCTCGGA", "label 1"],
  ["CGGCTTTA", "label 1"],
  ["ATCTATCG", "label 0"],
  ["AGTTATGG", "label 0"],
  ["AAGCCGAA", "label 1"],
  ["CGTCCGGC", "label 1"],
  ["CACTCGGG", "label 0"]
]}

* * *

molecular target: Hap1 (UniProt P0CE41); test: PBM E-score (8-mer binding enrichment) (E-score (-0.5 to 0.5)); higher = stronger / more preferred TF binding; conditions: protein concentration: 200 nM; construct: GST-DNA-binding domain
The full ranking holds about 33,000 sequences; the median of “E-score (-0.5 to 0.5)” is about -0.053, and the highest 2% start at about 0.37. Shown is part of a subset that was picked to be rich in the highest values.
# PBM E-score listing for each entry below

{"columns": ["sequence", "target.system", "PBM E-score"],
 "data": [
  ["CAACTGTA", "Hap1 (UniProt P0CE41)", -0.234],
  ["ACCTCCGT", "Hap1 (UniProt P0CE41)", 0.286],
  ["GCCCAAGA", "Hap1 (UniProt P0CE41)", -0.22],
  ["TCGGTAAA", "Hap1 (UniProt P0CE41)", 0.249],
  ["ACCAGACC", "Hap1 (UniProt P0CE41)", 0.0586],
  ["ATCTCTTC", "Hap1 (UniProt P0CE41)", -0.0222],
  ["AAAGCCCG", "Hap1 (UniProt P0CE41)", 0.374],
  ["GCTCCGTA", "Hap1 (UniProt P0CE41)", 0.297],
  ["GAAGCCGA", "Hap1 (UniProt P0CE41)", 0.308],
  ["CTGCTGGA", "Hap1 (UniProt P0CE41)", -0.231],
  ["ACCTCCGG", "Hap1 (UniProt P0CE41)", 0.454],
  ["CCACCTGC", "Hap1 (UniProt P0CE41)", -0.121],
  ["CGCTAGCG", "Hap1 (UniProt P0CE41)", 0.0545],
  ["AAATGAAT", "Hap1 (UniProt P0CE41)", -0.213],
  ["CCTAGTTC", "Hap1 (UniProt P0CE41)", -0.00076],
  ["AAAGCCTG", "Hap1 (UniProt P0CE41)", -0.184],
  ["ACTCCGTG", "Hap1 (UniProt P0CE41)", 0.292],
  ["TATCAGCA", "Hap1 (UniProt P0CE41)", 0.0209],
  ["ATGTTTCA", "Hap1 (UniProt P0CE41)", -0.21],
  ["GCTCCGCA", "Hap1 (UniProt P0CE41)", 0.164],
  ["AAGGGTCA", "Hap1 (UniProt P0CE41)", -0.124],
  ["TCGTAAAA", "Hap1 (UniProt P0CE41)", 0.0494],
  ["ACTCCGGG", "Hap1 (UniProt P0CE41)", 0.39],
  ["TGGCAGAA", "Hap1 (UniProt P0CE41)", -0.0128],
  ["ACGGTGGA", "Hap1 (UniProt P0CE41)", -0.062],
  ["CGGTTTTA", "Hap1 (UniProt P0CE41)", 0.433],
  ["AGGGGATA", "Hap1 (UniProt P0CE41)", -0.167],
  ["CCGTTCCA", "Hap1 (UniProt P0CE41)", 0.172],
  ["ATCTCTAC", "Hap1 (UniProt P0CE41)", -0.223],
  ["AAAGCCGG", "Hap1 (UniProt P0CE41)", 0.439],
  ["GGAAAACA", "Hap1 (UniProt P0CE41)", 0.139],
  ["AAATTCTA", "Hap1 (UniProt P0CE41)", -0.166],
  ["CCCTCCGA", "Hap1 (UniProt P0CE41)", 0.253],
  ["CGGCGGTC", "Hap1 (UniProt P0CE41)", 0.244],
  ["CCCTTAAG", "Hap1 (UniProt P0CE41)", 0.13],
  ["AGGTTATA", "Hap1 (UniProt P0CE41)", -0.0688],
  ["AAGCGGAG", "Hap1 (UniProt P0CE41)", -0.0297],
  ["CTAACCCC", "Hap1 (UniProt P0CE41)", 0.235],
  ["ACCCGATG", "Hap1 (UniProt P0CE41)", 0.3],
  ["CAGGCTAG", "Hap1 (UniProt P0CE41)", -0.279]
]}

* * *

biological target: Hap1 (UniProt P0CE41); assay: PBM E-score (8-mer binding enrichment) (E-score (-0.5 to 0.5)); higher = stronger / more preferred TF binding; settings: protein concentration: 200 nM; construct: GST-DNA-binding domain
In all, about 33,000 sequences were measured (“E-score (-0.5 to 0.5)”: median about -0.053, highest 2% from about 0.37 on). The list comes from a sample in which the highest values are over-represented; it also holds close analogues and randomly drawn sequences.
Criterion: PBM E-score meeting or surpassing 0.2. Met: met. Not met: not met.

{"columns": ["sequence", "discrete.label"],
 "data": [
  ["GGCGGAAC", "met"],
  ["AGGTTCGA", "not met"],
  ["ACCGGGGA", "met"],
  ["CACGGACC", "met"],
  ["CGGACGTC", "met"],
  ["GAACTGTA", "not met"],
  ["ACCGGGCC", "met"],
  ["GGATATCC", "met"],
  ["CTCGGAAC", "met"],
  ["GCGTTGCA", "not met"],
  ["CCGCTGCA", "not met"],
  ["AGATATCC", "not met"],
  ["CGATATCA", "met"],
  ["CCGACGGA", "met"],
  ["AAGTCGAG", "not met"],
  ["AGACCTCT", "not met"],
  ["TAACCCGA", "met"],
  ["CTTCGGAA", "met"],
  ["AATCCCAT", "not met"],
  ["ATTCGGGC", "met"],
  ["AGGACGTA", "not met"],
  ["ATTCGGAG", "met"],
  ["GACAGGGC", "not met"],
  ["ATTCGGCG", "met"],
  ["AGGTTGGC", "not met"],
  ["AGCGGAAC", "met"],
  ["ATTCGGAA", "met"],
  ["AGGGAGAA", "not met"],
  ["AGATATCG", "met"],
  ["ATTCGGCC", "met"],
  ["GCGACGGA", "met"],
  ["ATCCGGTA", "met"],
  ["AAGCTGCC", "not met"],
  ["ACCGGGGG", "met"],
  ["AAACCCGA", "met"],
  ["ATCGGGCG", "met"],
  ["CCGGTCCG", "met"],
  ["ACCACTTA", "not met"],
  ["CGCGGACA", "met"],
  ["ACAGTGGA", "not met"],
  ["GTCCCGAC", "met"],
  ["AACGGGCG", "met"],
  ["CGGGGACG", "not met"],
  ["CAACCTTC", "not met"],
  ["CTGGAGGC", "not met"],
  ["AGCCCCTG", "not met"],
  ["AGCTGTGC", "not met"],
  ["CTTGGACA", "not met"],
  ["CTTCTCCA", "not met"],
  ["GAAACCGA", "met"],
  ["ATCTCTCC", "not met"],
  ["GTCGGACA", "met"],
  ["GCAGCGGC", "not met"],
  ["CGTTTTAA", "not met"],
  ["ATCGGACA", "met"],
  ["AGTACCCG", "not met"],
  ["CCGCACCC", "met"],
  ["CTGGTAGA", "not met"],
  ["AATCCCGC", "met"],
  ["CCATTAGG", "not met"],
  ["GTTCGGAA", "met"],
  ["ACCGGGCA", "met"],
  ["GCACTGGA", "not met"],
  ["ATCAACAC", "not met"],
  ["CCCGGAAC", "met"],
  ["ACTACGGA", "met"],
  ["AAACCCGC", "met"],
  ["CCATGGCC", "not met"],
  ["CGGACGTA", "met"],
  ["AATCCCGA", "met"],
  ["AAAACCGA", "met"]
]}
